- Test system: N140
- PROTOCOL_NOTES: qHTS profiling for inhibitors of Plasmodium falciparum proliferation (AID 504749); note: nearly all actives have a fitted effect of over 60% in size
- ASSAY_CONTEXT: P. falciparum in erythrocytes, SYBR Green DNA, 72 h; series mostly up to 28.7 µM
Inconclusive results are not listed. Calls of active or inactive are those of the source. Calls come from the whole dose curve; as a rule, active = well fitted inhibition curve with a large enough effect; inconclusive = small, poorly fitted or top-dose-only effect; inactive = flat fitted curve, though single readings scatter.
Entry note: the call must match one of Yes (active), No (inactive)

Examples with answers:
C(=C/c1ccccc1)/CN1CCN(C(c2ccccc2)c2ccccc2)CC1: No
CC(C)(C)c1ccc(CN2CCN([C@H](c3ccccc3)c3ccc(Cl)cc3)CC2)cc1: Yes

## Task How did this test come out for "C[C@H]1C[C@@H]2[C@H]3CCC4=CC(=O)C=C[C@@]4(C)[C@@]3(Cl)[C@@H](O)C[C@]2(C)[C@]1(OC(=O)c1ccco1)C(=O)CCl" ?
## Result Yes

## Task Look up the recorded call for "Cc1onc(-c2c(F)cccc2Cl)c1C(=O)N[C@@H]1C(=O)N2[C@H]1SC(C)(C)[C@H]2C(=O)O" in this test.
## Result No

###

- TARGET_SYSTEM: Mitogen-activated protein kinase 10 (Mus musculus) (UniProt Q61831)
- PROTOCOL_NOTES: JNK3 AlphaScreen Assay (AID 530);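 note: kinase came from lysate of stimulated human HepG2 cells; signal reports phosphorylation of biotinylated GST-cJun 1-79 at Ser73 with 10 µM ATP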
- ASSAY_CONTEXT: JNK3 lysate, c-Jun phosphorylation; series mostly up to 11.4 µM
Inconclusive results are not listed. Active and inactive are the calls of the source. The call rests on the fitted dose curve; in most records, active means well fitted curve in either direction with a large enough effect (not every such curve was filed as active); inconclusive means small, poorly fitted or top-dose-only effect, or another doubt; inactive means flat fitted curve, though single readings scatter.
VALUE_TYPE: outcome

O=C(O)/C=C(/C(=O)O)[C@]12CCN3CC4=CCO[C@@H]5CC(=O)N[C@@H]1[C@H]5[C@H]4C[C@H]32: inactive
C[C@H](C(=O)c1ccncc1)c1ccccn1: inactive
CN[C@@H](CC(C)C)C(=O)N[C@@H]1C(=O)N[C@H](CC(N)=O)C(=O)N[C@H]2C(=O)N[C@H]3C(=O)N[C@H](C(=O)N[C@H](C(=O)O)c4cc(O)cc(O)c4-c4cc3ccc4O)[C@H](O)c3ccc(c(Cl)c3)Oc3cc2cc(c3O[C@@H]2O[C@@H](CO)[C@@H](O)[C@@H](O)[C@H]2O[C@H]2C[C@](C)(N)[C@H](O)[C@H](C)O2)Oc2ccc(cc2Cl)[C@@H]1O: inactive

###

- TARGET_SYSTEM: Glucocorticoid receptor (Homo sapiens)
- PROTOCOL_NOTES: GR-EFC Redistribution (AID 451)
- ASSAY_CONTEXT: CHO-K1 GR-EFC translocation, beta-gal luminescence, 2 h
The source made the active and inactive calls. The call rests on the fitted dose curve.
# output must be one of 1.0 = active, 0.0 = inactive

Worked set:
C[C@H](C(=O)c1ccccc1)[C@@H](c1ccccc1)N1CCOCC1: 0.0
O=C(O)c1c[nH]c2cc(OCc3ccccc3)ccc2c1=O: 0.0
O=C(O)[C@@H](O)[C@@H](O)[C@@H](O)[C@@H](O)c1nc2ccccc2s1: 0.0
CCOC(=S)SCC(=O)O: 0.0
c1ccc2c(c1)-c1ccccc1C2N1CC2CCC(CC2)C1: 0.0
O=C(O)C(=O)/C=C(\O)c1ccc(Br)cc1: 0.0
Cc1cn([C@H]2C[C@H](O)[C@@H](COC(N)=O)O2)c(=O)[nH]c1=O: 0.0
O=S(=O)(O)c1cc(O)c2c(O)c(N=Nc3cccc4ccccc34)c(S(=O)(=O)O)cc2c1: 0.0

## Task How was "O=C(O)CNCCc1ccccc1" classified in this test?
## Result 0.0

## Task Which outcome did this test record for the compound "O=C(O)[C@@H](c1ccccc1)[C@@H](C(=O)O)c1ccccc1" ?
## Result 0.0

## Task Give the logged outcome of this assay for the following compound: "Clc1ccc2c(N3CCC(CCC4CCN(c5ncnc6cc(Cl)ccc56)CC4)CC3)ncnc2c1"
## Result 0.0

## Task Answer briefly: the call reported for "CC[C@@H](CS(=O)(=O)O)[N+](=O)[O-]" in this assay.
## Result 0.0

## Task Please share the test call associated with "Oc1c(CN2CCOCC2)ccc(CN2CCOCC2)c1O" .
## Result 0.0
